B1: HDAC6 (parent)
chain: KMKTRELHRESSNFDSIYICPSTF

Variants of: B1
TEST: protein stability index of a GFP-peptide fusion (GPS, HEK-293T) (PSI 1-6); higher = more stable;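 also: lentivirally expressed fusions sorted by FACS into six bins by GFP to DsRed ratio, PSI derived from sequencing read proportions per bin multiplied by bin number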
MEASUREMENT_CONDITIONS: c terminus: a fixed tail appended
PROPERTY: protein stability index

>>> numeric_readout("R5N")
2.46
>>> numeric_readout("M2W")
2.21
>>> numeric_readout("K1Y")
1.59
>>> numeric_readout("I19A")
2.74
>>> numeric_readout("I19K")
2.94
>>> numeric_readout("T23R")
2.05
>>> numeric_readout("C20V")
2.24
>>> numeric_readout("S11A")
1.87
>>> numeric_readout("K3A")
2.62
>>> numeric_readout("S22H")
2.09
>>> numeric_readout("D15E")
1.93
